# Test system: U2OS VEGF mRNA induction, RT-PCR
# PROTOCOL DESCRIPTION: activators raising VEGF transcript levels – cell-based, U2OS, RT-PCR, dry powder, set 2, orthogonal assay for HIF pathway activator project, dose response (AID 493238);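 active = VEGF mRNA rise whose fitted curve reaches 40% activation within the highest concentration tested on that sample; inactive = the rest, including effects opposite to expected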
One label from this list, please: yes = active, no = inactive

Previously resolved entries follow.
>  <COMPOUND>
C[C@@H](Nc1nc(-c2ccccn2)nnc1-c1ccccc1)C1CCCCC1

>  <TGT>
U2OS VEGF mRNA induction, RT-PCR

>  <CATEGORY>
yes

$$$$
>  <COMPOUND>
COc1cccc(CNc2nc(-c3ccccn3)nnc2-c2ccccc2)c1

>  <TGT>
U2OS VEGF mRNA induction, RT-PCR

>  <CATEGORY>
yes

$$$$
>  <COMPOUND>
O=C(NCCCn1ccnc1)c1cc(-c2ccccc2)on1

>  <TGT>
U2OS VEGF mRNA induction, RT-PCR

>  <CATEGORY>
yes

$$$$
>  <COMPOUND>
CC(C)(C)c1ccc(CNc2nc(-c3ccccn3)nnc2-c2ccccc2)cc1

>  <TGT>
U2OS VEGF mRNA induction, RT-PCR

>  <CATEGORY>
yes

$$$$
>  <COMPOUND>
Cc1cccc(Nc2nc(-c3ccccn3)nnc2-c2ccccc2)n1

>  <TGT>
U2OS VEGF mRNA induction, RT-PCR

>  <CATEGORY>
yes

$$$$
>  <COMPOUND>
Clc1cccc(CNc2nc(-c3ccccn3)nnc2-c2ccccc2)c1

>  <TGT>
U2OS VEGF mRNA induction, RT-PCR

>  <CATEGORY>
yes

$$$$
>  <COMPOUND>
Oc1ccc(CN2CCC(Cc3ccccc3)CC2)c2cccnc12

>  <TGT>
U2OS VEGF mRNA induction, RT-PCR

>  <CATEGORY>
yes

$$$$
>  <COMPOUND>
O=C(Nc1ncc2ccccc2n1)c1cc(-c2ccccc2)on1

>  <TGT>
U2OS VEGF mRNA induction, RT-PCR

>  <CATEGORY>
yes

$$$$

### Prompt Dear all, I need the recorded test outcome for CC(Nc1nc(-c2ccccn2)nnc1-c1ccccc1)c1ccccc1 (configuration not stated) , thank you.
### Response yes

====

# PROTOCOL DESCRIPTION: activators raising VEGF transcript levels – cell-based, U2OS, RT-PCR, dry powder, set 2, orthogonal assay for HIF pathway activator project, dose response (AID 493238)
# CONDITIONS: U2OS VEGF mRNA induction, RT-PCR; at 38 µM (top of the series)
The entries below are paired with their reported activation.
The response must be a number in % with no trailing unit.

Check out these entries, answers already filled in.
>  <STRUCTURE SMILES>
O=C(c1cc(-c2ccccc2)on1)N1CCc2cccnc21

>  <READOUT UNITS>
%

>  <VALUE MEASURED>
5.33

$$$$
>  <STRUCTURE SMILES>
Cn1c(NC(=O)c2cc(-c3ccccc3)on2)nc2ccccc21

>  <READOUT UNITS>
%

>  <VALUE MEASURED>
-9.2

$$$$
>  <STRUCTURE SMILES>
O=C(NCc1ccccc1)c1cc(-c2ccccc2)on1

>  <READOUT UNITS>
%

>  <VALUE MEASURED>
-10.1

$$$$
>  <STRUCTURE SMILES>
O=C(Nc1nnc(-c2ccccc2)s1)c1cc(-c2ccccc2)on1

>  <READOUT UNITS>
%

>  <VALUE MEASURED>
-3.69

$$$$
>  <STRUCTURE SMILES>
Cc1ccccc1CNC(=O)c1cc(-c2ccccc2)on1

>  <READOUT UNITS>
%

>  <VALUE MEASURED>
35.3

$$$$

Kindly consider the entry below.
### Prompt Name the reported activation value associated with the molecule "O=C(c1cc(-c2ccccc2)on1)N1CCC(CO)CC1"
### Response 9.68

====

The entries below are paired with their reported activation.
# PROTOCOL DESCRIPTION: activators raising VEGF transcript levels – cell-based, U2OS, RT-PCR, dry powder, set 2, orthogonal assay for HIF pathway activator project, dose response (AID 493238)
# CONDITIONS: U2OS VEGF mRNA induction, RT-PCR; at 38 µM (top of the series)
The response must be a number in % with no trailing unit.

Check out these entries, answers already filled in.
>  <STRUCTURE SMILES>
O=C(Nc1nc(-c2ccccc2)cs1)c1cc(-c2ccccc2)on1

>  <READOUT UNITS>
%

>  <activation>
-5.33

$$$$
>  <STRUCTURE SMILES>
O=C(NC1Cc2ccccc2C1)c1cc(-c2ccccc2)on1

>  <READOUT UNITS>
%

>  <activation>
2.5

$$$$

### Prompt Name the reported activation value associated with the molecule "O=C(Nc1nc2ccccc2s1)c1cc(-c2ccccc2)on1"
### Response 18.7

### Prompt Cool, now "O=C(Nc1ncc(-c2ccccc2)o1)c1cc(-c2ccccc2)on1"
### Response -1.45

### Prompt Cool, now "Cc1cccc(CNC(=O)c2cc(-c3ccccc3)on2)c1"
### Response 8.64

### Prompt Cool, now "Cc1ccc(NC(=O)c2cc(-c3ccccc3)on2)cn1"
### Response 4.7

### Prompt Cool, now "CN1CCN(C(=O)c2cc(-c3ccccc3)on2)CC1"
### Response 5.56

====

# Tested on: U2OS VEGF mRNA induction, RT-PCR
# PROTOCOL DESCRIPTION: activators raising VEGF transcript levels – cell-based, U2OS, RT-PCR, dry powder, set 2, orthogonal assay for HIF pathway activator project, dose response (AID 493238);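 active means VEGF mRNA rise whose fitted curve reaches 40% activation within the highest concentration tested on that sample; inactive means the rest, including effects opposite to expected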
One label from this list, please: active, inactive

Previously resolved entries follow.
>  <COMPOUND>
c1ccc(-c2csc(Nc3nc(-c4ccccn4)nnc3-c3ccccc3)n2)cc1

>  <CATEGORY>
active

$$$$
>  <COMPOUND>
CC(C)(C)OC(=O)N1CCN(Cc2ccc(O)c3ncccc23)CC1

>  <CATEGORY>
active

$$$$
>  <COMPOUND>
c1ccc(-c2nnc(-c3ccccn3)nc2N2CCC(c3ccccc3)C2)cc1 (stereo unspecified)

>  <CATEGORY>
active

$$$$
>  <COMPOUND>
Cc1ccccc1CNc1nc(-c2ccccn2)nnc1-c1ccccc1

>  <CATEGORY>
active

$$$$
>  <COMPOUND>
c1ccc(-c2nnc(-c3ccccn3)nc2N2CCC(C3CCCCC3)C2)cc1 (stereo unspecified)

>  <CATEGORY>
active

$$$$

### Prompt Dear all, I need the recorded test outcome for "c1ccc(-c2nnc(-c3ccccn3)nc2N2CCC(N3CCOCC3)CC2)cc1" , thank you.
### Response active

### Prompt Cool, now "c1ccc(-c2nnc(-c3ccccn3)nc2NCC2CCCCC2)cc1"
### Response active

### Prompt Cool, now "OCC1CCN(Cc2ccc(O)c3ncccc23)CC1"
### Response active

### Prompt Cool, now "c1ccc(CCNc2nc(-c3ccccn3)nnc2-c2ccccc2)cc1"
### Response active

### Prompt Cool, now "c1ccc(CNc2nc(-c3ccccn3)nnc2-c2ccccc2)cc1"
### Response active

### Prompt Cool, now "c1ccc(-c2nnc(Nc3nc(-c4ccccn4)nnc3-c3ccccc3)s2)cc1"
### Response active

### Prompt Cool, now "COc1ccccc1N1CCN(Cc2ccc(O)c3ncccc23)CC1"
### Response active

### Prompt Cool, now "O=C(NCC1CC1)c1cc(-c2ccccc2)on1"
### Response active

### Prompt Cool, now "c1ccc(-c2nnc(-c3ccccn3)nc2Nc2cnc3ccccc3n2)cc1"
### Response active

### Prompt Cool, now "C[C@H](Nc1nc(-c2ccccn2)nnc1-c1ccccc1)C1CCCCC1"
### Response active

### Prompt Cool, now "c1ccc(-c2ccc(CNc3nc(-c4ccccn4)nnc3-c3ccccc3)cc2)cc1"
### Response active

### Prompt Cool, now "c1ccc(-c2cccc(CNc3nc(-c4ccccn4)nnc3-c3ccccc3)c2)cc1"
### Response active

====

# PROTOCOL DESCRIPTION: activators raising VEGF transcript levels – cell-based, U2OS, RT-PCR, dry powder, set 2, orthogonal assay for HIF pathway activator project, dose response (AID 493238)
# CONDITIONS: U2OS VEGF mRNA induction, RT-PCR; at 38 µM (top of the series)
Activity calls are given as the source filed them.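 Rule for the calls: active = VEGF mRNA rise whose fitted curve reaches 40% activation within the highest concentration tested on that sample; inactive = the rest, including effects opposite to expected.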
QUANTITY MEASURED: activation

>  <STRUCTURE SMILES>
O=C(c1cc(-c2ccccc2)on1)N1CCC(N2CCOCC2)CC1

>  <VALUE MEASURED>
2.34% (inactive)

$$$$
>  <STRUCTURE SMILES>
O=C(NCCN1CCCCC1)c1cc(-c2ccccc2)on1

>  <VALUE MEASURED>
-5.63% (inactive)

$$$$
>  <STRUCTURE SMILES>
Cc1ccc(CNC(=O)c2cc(-c3ccccc3)on2)cc1

>  <VALUE MEASURED>
8.66% (inactive)

$$$$

### Prompt Name the reported activation value associated with the molecule "Cc1cccc(NC(=O)c2cc(-c3ccccc3)on2)n1"
### Response 16.6% (inactive)
